Attribution: patent US20250000991A1

Target: T1, human Nectin-4-eGFP on T24 cells (clone 3) (human, UniProt Q96NY8 32-510)
T1 sequence: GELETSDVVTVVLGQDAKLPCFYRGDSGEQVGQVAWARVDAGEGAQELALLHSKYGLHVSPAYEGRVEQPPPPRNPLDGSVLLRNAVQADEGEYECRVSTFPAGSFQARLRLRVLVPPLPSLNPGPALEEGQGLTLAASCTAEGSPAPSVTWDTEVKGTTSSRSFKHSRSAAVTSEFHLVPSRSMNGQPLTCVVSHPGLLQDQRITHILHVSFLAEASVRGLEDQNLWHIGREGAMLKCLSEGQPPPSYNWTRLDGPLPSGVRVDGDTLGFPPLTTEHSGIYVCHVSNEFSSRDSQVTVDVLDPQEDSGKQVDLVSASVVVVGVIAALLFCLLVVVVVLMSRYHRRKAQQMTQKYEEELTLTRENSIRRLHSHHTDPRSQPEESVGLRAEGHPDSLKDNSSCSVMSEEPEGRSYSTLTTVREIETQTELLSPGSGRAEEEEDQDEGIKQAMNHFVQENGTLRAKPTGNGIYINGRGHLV
Test: cell-based or functional assay
testReadout: EC50 (nM) of nectin-4-eGFP signal loss
Expressed in nM, but write only the number.

These solved cases illustrate the format of a correct answer.
[[record]]
binder = "Ab5 ADC (Ab5 conjugated as in Formula XI, DAR of 8) (antibody, human IgG1, kappa, L234A L235A, V domains shown, camptothecin analog linker-payload of Formula XI on cysteine thiols after full reduction, DAR of 8 per antibody; positions not given, Antibody-drug conjugate of Ab5; also called Ab5 (ADC column)) VH: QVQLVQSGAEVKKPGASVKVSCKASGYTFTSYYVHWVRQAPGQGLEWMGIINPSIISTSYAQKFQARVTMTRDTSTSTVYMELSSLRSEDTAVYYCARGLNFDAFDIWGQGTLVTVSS VL: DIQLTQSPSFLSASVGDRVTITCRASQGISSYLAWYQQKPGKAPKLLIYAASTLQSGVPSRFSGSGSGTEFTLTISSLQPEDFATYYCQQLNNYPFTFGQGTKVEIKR"
recordedresult = 2.8

[[record]]
binder = "Ab8 (antibody, human IgG1, lambda, L234A L235A, V domains shown, Unconjugated antibody; also called Antibody 8; nectin-4 antibody Ab8) VH: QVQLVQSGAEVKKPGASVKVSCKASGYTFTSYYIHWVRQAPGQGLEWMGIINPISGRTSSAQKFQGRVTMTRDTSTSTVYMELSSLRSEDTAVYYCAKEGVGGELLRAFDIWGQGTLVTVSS VL: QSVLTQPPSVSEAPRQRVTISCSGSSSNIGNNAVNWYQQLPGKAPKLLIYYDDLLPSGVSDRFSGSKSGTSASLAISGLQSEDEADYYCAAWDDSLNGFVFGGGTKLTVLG"
recordedresult = 3.68


Then there is this binder:
According to the records, this binder Ab5 (antibody, human IgG1, kappa, L234A L235A, V domains shown, Unconjugated antibody; also called Antibody 5; nectin-4 antibody Ab5) VH: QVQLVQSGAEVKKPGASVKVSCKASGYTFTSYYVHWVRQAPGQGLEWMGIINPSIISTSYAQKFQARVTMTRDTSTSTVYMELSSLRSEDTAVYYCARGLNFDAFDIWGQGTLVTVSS VL: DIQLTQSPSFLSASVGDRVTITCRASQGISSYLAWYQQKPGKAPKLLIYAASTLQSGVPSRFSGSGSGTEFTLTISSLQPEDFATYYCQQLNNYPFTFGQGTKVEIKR displays EC50 (nM) of nectin-4-eGFP signal loss of 2.69
